Would you kindly list Population Mitochondria Different-Phenotype (%) for each of these molecules?
- Tested on: Fibroblast
- PROTOCOL DETAILS: Multiplex assay against human fibroblast
- Type: toxicity, cell-based
- TEST CONDITIONS: 48 h, 10 µM, compound concentration 10 uM, replicate 1
Report the figure in % without appending any unit label.

Task: Reported Population Mitochondria Different-Phenotype (%) for Oc1c(CN2CCN(c3ccccn3)CC2)cc(Cl)c2cccnc12 : what is it?
Result: 9

Task: Reported Population Mitochondria Different-Phenotype (%) for Cc1ccc(/C(=C\CN2CCCC2)c2ccccn2)cc1 [TRIPROLIDINE] : what is it?
Result: 6

Task: Reported Population Mitochondria Different-Phenotype (%) for O=C(NCCO)c1cccc(-c2cc(Nc3ccc(OC(F)(F)F)cc3)ncn2)c1 : what is it?
Result: 26

Task: Reported Population Mitochondria Different-Phenotype (%) for CC[C@H]1OC(=O)[C@H](C)[C@@H](O[C@H]2C[C@@](C)(OC)[C@@H](O)[C@H](C)O2)[C@H](C)[C@@H](O[C@@H]2O[C@H](C)C[C@H](N(C)C)[C@H]2O)[C@@]2(C)CC(C)=C(O2)[C@H](C)[C@@H](O)[C@]1(C)O : what is it?
Result: 40

Task: Reported Population Mitochondria Different-Phenotype (%) for CC(C)(C)c1ccc(S(=O)(=O)Nc2ccc(Cl)cc2C(=O)c2cc[n+]([O-])cc2)cc1 [VERCIRNON] : what is it?
Result: 0

Task: Reported Population Mitochondria Different-Phenotype (%) for C[C@H](NC(=O)c1c(C(F)F)nn(C)c1Oc1cccc(C(F)(F)F)c1)c1ccc(C(=O)O)cc1 [PALUPIPRANT] : what is it?
Result: 8

Task: Reported Population Mitochondria Different-Phenotype (%) for CCCN1CCC[C@@H]2Cc3n[nH]cc3C[C@H]21.Cl [QUINPIROLE HYDROCHLORIDE] : what is it?
Result: 6

---

- Tested on: HEK-293T
- PROTOCOL DETAILS: Multiplex assay against HEK293T
- Assay type: toxicity, cell-based
- TEST CONDITIONS: human, 48 h, 10 µM, compound concentration 10 uM, replicate 2
Outcome: class 1 for Population Normal (%) of at least 90%; class 0 for anything lower.

Task: Does Population Normal (%) meet or surpass 90% for CNC[C@H](O)c1ccc(O)c(O)c1 [EPINEPHRINE] ?
Result: class 0

Task: Does Population Normal (%) meet or surpass 90% for O=C(NCC(=O)N1CC[C@H](N[C@H]2CC[C@@](O)(c3ccc(-c4ncccn4)cn3)CC2)C1)c1cccc(C(F)(F)F)c1 [PF-4136309] ?
Result: class 1

Task: Does Population Normal (%) meet or surpass 90% for CC1(COc2ccc3c(c2)ncn3-c2ccc3cccc(N4CCC(N)CC4)c3n2)COC1 [CRENOLANIB] ?
Result: class 0

Task: Does Population Normal (%) meet or surpass 90% for CN1CCN(c2nc3cc(C(F)(F)F)ccc3n3cccc23)CC1.O=C(O)/C=C\C(=O)O.O=C(O)/C=C\C(=O)O ?
Result: class 0

Task: Does Population Normal (%) meet or surpass 90% for O=C1COc2nccc(-c3ccccc3F)c2CN1Cc1cc(C(F)(F)F)cc(C(F)(F)F)c1 ?
Result: class 1

---

- System: Fibroblast
- PROTOCOL DETAILS: Multiplex assay against human fibroblast
- Type: toxicity, cell-based
- TEST CONDITIONS: 24 h, 1 µM, compound concentration 1 uM, replicate 1
Would you kindly list Population Tubulin-Different-Phenotype (%) for each of these compounds?
Put your answer as a value accompanied by its unit after it.

Task: Reported Population Tubulin-Different-Phenotype (%) for Cc1ccccc1C(=O)Nc1ccc(C(=O)N2CCCC(N(C)C)c3ccccc32)cc1.Cl (stereo not drawn) : what is it?
Result: 30%

Task: Reported Population Tubulin-Different-Phenotype (%) for COc1ccc2c(c1)C(C(=O)N(Cc1ccc(N(C)C)cc1)c1ccc(C(C)C)cc1)CCC2.Cl (stereo not drawn) : what is it?
Result: 25%

Task: Reported Population Tubulin-Different-Phenotype (%) for O=S(=O)(c1ccccc1)c1cnc2c(N3CCNCC3)cccc2c1 [INTEPIRDINE] : what is it?
Result: 28%

Task: Reported Population Tubulin-Different-Phenotype (%) for O=C(O)Cc1ccccc1Nc1c(Cl)cccc1Cl : what is it?
Result: 29%

Task: Reported Population Tubulin-Different-Phenotype (%) for CC(=O)NCCc1c(Cc2ccccc2)[nH]c2ccccc12 : what is it?
Result: 13%

Task: Reported Population Tubulin-Different-Phenotype (%) for CN(C)c1ccnc2sc3c(=O)n(N4CCCCCC4)cnc3c12 : what is it?
Result: 27%

Task: Reported Population Tubulin-Different-Phenotype (%) for CCNC1(C(N)=O)CCN(c2ncnc3c2nc(-c2ccccc2Cl)n3-c2ccc(Cl)cc2)CC1 : what is it?
Result: 44%

Task: Reported Population Tubulin-Different-Phenotype (%) for CCOc1c2c(c(OCC)c3ncccc13)CN(c1ccc(CS(=O)(=O)NC(=O)Cc3ccccc3OC)cc1C)C2=O : what is it?
Result: 23%

Task: Reported Population Tubulin-Different-Phenotype (%) for CSCC[C@H](NC=O)C(=O)N[C@@H](CC(C)C)C(=O)N[C@@H](Cc1ccccc1)C(=O)O : what is it?
Result: 18%

Task: Reported Population Tubulin-Different-Phenotype (%) for O=C(NCC(=O)N1CC[C@H](N[C@H]2CC[C@@](O)(c3ccc(-c4ncccn4)cn3)CC2)C1)c1cccc(C(F)(F)F)c1 : what is it?
Result: 32%

Task: Reported Population Tubulin-Different-Phenotype (%) for O=C(NCCO)c1cccc(-c2cc(Nc3ccc(OC(F)(F)F)cc3)ncn2)c1 : what is it?
Result: 33%

Task: Reported Population Tubulin-Different-Phenotype (%) for COc1c(C)cc(NC(=O)c2nn(Cc3ccc(F)cc3)c3c2CN(C(=O)c2ccc[nH]2)C[C@]3(C)C(N)=O)cc1C : what is it?
Result: 45%

Task: Reported Population Tubulin-Different-Phenotype (%) for Cl.Clc1ccc2nsnc2c1NC1=NCCN1 [TIZANIDINE HYDROCHLORIDE] : what is it?
Result: 16%

Task: Reported Population Tubulin-Different-Phenotype (%) for CCCC(CCC)C(=O)O : what is it?
Result: 22%

Task: Reported Population Tubulin-Different-Phenotype (%) for Cc1nc2ccc(Oc3ccc(F)cc3)cc2c(=O)n1C[C@H]1CCCN(C(C)C)C1.Cl : what is it?
Result: 30%

Task: Reported Population Tubulin-Different-Phenotype (%) for c1cc(OCCCN2CCCCC2)ccc1CN1CCCCC1 : what is it?
Result: 23%

Task: Reported Population Tubulin-Different-Phenotype (%) for CSc1ccccc1N1CCN(CCCCCC(=O)NC2CCCc3ccccc32)CC1.Cl (stereo not drawn) : what is it?
Result: 40%

Task: Reported Population Tubulin-Different-Phenotype (%) for CC1(COc2ccc3c(c2)ncn3-c2ccc3cccc(N4CCC(N)CC4)c3n2)COC1 : what is it?
Result: 61%

Task: Reported Population Tubulin-Different-Phenotype (%) for COc1cc(NC(=O)CCN2CCC(OC(=O)Nc3ccccc3-c3ccccc3)CC2)c(Cl)cc1CNC[C@H](O)c1ccc(O)c2[nH]c(=O)ccc12 : what is it?
Result: 39%

Task: Reported Population Tubulin-Different-Phenotype (%) for O=C1COc2nccc(-c3ccccc3F)c2CN1Cc1cc(C(F)(F)F)cc(C(F)(F)F)c1 : what is it?
Result: 23%

Task: Reported Population Tubulin-Different-Phenotype (%) for Oc1c(CN2CCN(c3ccccn3)CC2)cc(Cl)c2cccnc12 : what is it?
Result: 30%

Task: Reported Population Tubulin-Different-Phenotype (%) for CCCN1CCC[C@@H]2Cc3n[nH]cc3C[C@H]21.Cl [QUINPIROLE HYDROCHLORIDE] : what is it?
Result: 13%

Task: Reported Population Tubulin-Different-Phenotype (%) for CNC[C@H](O)c1ccc(O)c(O)c1 [EPINEPHRINE] : what is it?
Result: 11%
